B1: KRT33B (parent)
chain: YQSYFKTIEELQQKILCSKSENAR

Variants of: B1
EXPERIMENT_NOTES: protein stability index of a GFP-peptide fusion (GPS, HEK-293T) (PSI 1-6); higher = more stable;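 also: lentivirally expressed fusions sorted by FACS into six bins by GFP to DsRed ratio, PSI derived from sequencing read proportions per bin multiplied by bin number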
REPORTED_CONDITIONS: c terminus: a fixed tail appended
MEASUREMENT_TYPE: protein stability index
Answer with the value's number alone.

variant_name=K14Q measurement_type="protein stability index" measured_value=2.78
variant_name=T7D measurement_type="protein stability index" measured_value=2.42
variant_name=R24E measurement_type="protein stability index" measured_value=1.88
variant_name=K6D measurement_type="protein stability index" measured_value=2.08
variant_name=I8N measurement_type="protein stability index" measured_value=2.19
variant_name=L16Y measurement_type="protein stability index" measured_value=1.41
variant_name=S20V measurement_type="protein stability index" measured_value=2.04
variant_name=E21A measurement_type="protein stability index" measured_value=1.86
variant_name=Q12I measurement_type="protein stability index" measured_value=1.94
variant_name=Q12F measurement_type="protein stability index" measured_value=2.98

Which value of protein stability index has been reported for `A23Q` in the records?
2.36

Look at this variant and give its reported protein stability index. `K6T`
1.79

Returns the measured protein stability index for the input variant. Input: `I8K`
2.42

Give its protein stability index value. Item: `K19R`
2.06

# lookup: protein stability index of `I15K`
1.64

# protein stability index lookup, item `L16Q`
1.88

Bench note: what protein stability index did `S20P` show?
1.99

Param item = `L11W` ; retrieve measured protein stability index.
2.2

Report protein stability index for `C17P` please.
1.77

Please give the measured protein stability index for this variant: `L16C`
2.52

These measurements were taken from the supplement of paper PMC10567573.
